Overview of recorded IC50 for various compounds
target: PDE4B2 (Homo sapiens, UniProt Q07343); construct: made in house; host or cells: SF21 insect cells (baculovirus generated in SF9 cells, pCR-Bac vector); assay: Inhibition of PDE4B2 activity, modified [3H]cAMP SPA (scintillation proximity assay) test; format: biochemical; details: recombinant PDE4B2 expressed in SF21 insect cells; 0.5 μM cAMP; 15 min at 37° C.; read-out: PDE4 Inhibition [measured as -logIC50 (mol/l)] (converted)
Sequence (Q07343 1-564 isoform Q07343-2): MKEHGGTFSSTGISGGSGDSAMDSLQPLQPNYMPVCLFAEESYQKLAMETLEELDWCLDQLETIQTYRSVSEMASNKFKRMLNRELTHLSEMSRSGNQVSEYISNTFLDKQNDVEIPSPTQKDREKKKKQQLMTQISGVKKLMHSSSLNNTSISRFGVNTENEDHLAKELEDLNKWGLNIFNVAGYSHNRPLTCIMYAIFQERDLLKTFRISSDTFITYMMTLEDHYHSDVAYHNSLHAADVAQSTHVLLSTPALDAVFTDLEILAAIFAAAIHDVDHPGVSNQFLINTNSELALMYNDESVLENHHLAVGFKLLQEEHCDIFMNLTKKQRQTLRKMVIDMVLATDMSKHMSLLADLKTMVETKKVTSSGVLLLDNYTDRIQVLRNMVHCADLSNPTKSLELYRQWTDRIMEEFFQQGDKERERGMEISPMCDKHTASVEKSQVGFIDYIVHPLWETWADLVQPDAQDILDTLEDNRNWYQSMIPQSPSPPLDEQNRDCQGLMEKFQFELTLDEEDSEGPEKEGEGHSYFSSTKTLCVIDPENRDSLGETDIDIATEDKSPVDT

Here is how some compounds turned out for IC50.
Item COc1ccc(C2=NN(C3CCN(CC(N)=O)CC3)C(=O)C(C)(C)C2)c2c1OC(C)(C)C2 [Compound 13] has what recorded IC50?
0.417 nM

Item COc1ccc(C2=NN(C3CCN(S(=O)(=O)c4ccccc4OC(F)(F)F)CC3)C(=O)C(C)(C)C2)cc1OC [Compound 7] has what recorded IC50?
2.29 nM

Item COc1ccc(C2=NN(C3CCN(CCC(=O)N4CCOCC4)CC3)C(=O)C(C)(C)C2)cc1OC.Cl [Compound 2, Hydrochloride] has what recorded IC50?
25.1 nM

Next compound, please.
Item COc1ccc(C2=NN(C3CCN(CC(N)=O)CC3)C(=O)C(C)(C)C2)cc1OC [Compound 3] has what recorded IC50?
1.86 nM
